Target: CIB1 and αIIb interaction (CIB1-GST : F-αIIb peptide) (Homo sapiens, UniProt Q99828)
Construct: made in house; host or cells: BL-21 plus RIL cells (E. coli)
Sequence (Q99828 1-191): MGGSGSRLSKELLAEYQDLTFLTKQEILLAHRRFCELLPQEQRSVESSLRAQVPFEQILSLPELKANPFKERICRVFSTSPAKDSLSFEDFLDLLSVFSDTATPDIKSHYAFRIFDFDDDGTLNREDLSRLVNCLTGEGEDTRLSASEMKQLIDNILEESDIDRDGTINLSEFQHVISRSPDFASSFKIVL
Assay: FP assay, 1536-well qHTS format (primary and confirmatory screen)
Type: binding
Details: qHTS primary screen of LOPAC/NPACT libraries; read-out: IC50
Recorded IC50 determines the label; the label ranges are bin 1: < 20 µM; bin 2: ≥ 20 µM and < 50 µM; bin 3: ≥ 50 µM

>>> classification("COc1cc(Nc2cc(C#N)nc3cc(OCCCN4CCN(C)CC4)c(OC)cc23)c(Cl)cc1Cl [NCGC00390366-01]")
"bin 3"
>>> classification("COC(=O)CC1OC(C)C2=C(O)c3c(O)cccc3C(=O)C23OC13 (centres unmarked) [NCGC00381362-01]")
"bin 2"
>>> classification("CCCC1(CCC)CCC2(CCN(CCCN(CC)CC)C2)CC1.Cl [NCGC00379163-01]")
"bin 3"
>>> classification("O=C(Nc1ccc([N+](=O)[O-])cc1Cl)c1cc(Cl)ccc1O [NCGC00015735-08]")
"bin 3"
>>> classification("CC1=C(C(=O)OC2CCCCC2)C(c2ccc([N+](=O)[O-])cc2)C2=C(CC(C)(C)CC2=O)N1 (centres unmarked) [NCGC00370923-11]")
"bin 1"
>>> classification("O=C(O)CC1(O)C(=O)Nc2ccccc21 (centres unmarked) [NCGC00385842-01]")
"bin 3"
>>> classification("CCC(C)CC(=O)OC1C(=O)C(CO)=CC(O)C1C(C)C (centres unmarked) [NCGC00381331-01]")
"bin 3"
>>> classification("O=C(N[C@@H](Cc1ccccc1)C(=O)CCl)OCc1ccccc1 [NCGC00093742-04]")
"bin 1"
>>> classification("CN1C[C@H](C(=O)N[C@]2(C)O[C@@]3(O)[C@@H]4CCCN4C(=O)[C@H](Cc4ccccc4)N3C2=O)C[C@@H]2c3cccc4[nH]cc(c34)C[C@H]21.CS(=O)(=O)O [NCGC00261042-01]")
"bin 3"
>>> classification("CCCC(C(=O)OCCN(CC)CC)(c1ccccc1)c1ccccc1.Cl [NCGC00015799-04]")
"bin 3"
>>> classification("C=C1CCC2C(C)(COC(C)=O)CCCC2(C)C1CCC(C)CC(=O)O (centres unmarked) [NCGC00384884-01]")
"bin 1"
>>> classification("C=C1C(=O)OC2/C=C(\\C)CC/C=C(\\C)CC(OC(C)=O)C12 (centres unmarked) [NCGC00385946-01]")
"bin 1"
>>> classification("COc1cccc(CNC(=O)C2=NC3SC=C(COCc4ccc(C(=O)O)cc4)C3C(=O)N2)c1 (centres unmarked) [NCGC00488702-01]")
"bin 1"
>>> classification("CC(=O)O[C@@H](CO[C@@H]1O[C@H](CO)[C@H](O)[C@H](O)[C@H]1O)[C@]1(C)C=C2CC[C@@H]3C(C)(C)[C@@H](O)CC[C@@]3(C)[C@@H]2CC1 [NCGC00347395-02]")
"bin 1"
>>> classification("CCCOc1ccccc1-c1nc(=O)c2nn[nH]c2[nH]1 [NCGC00016105-05]")
"bin 1"
>>> classification("C/C(=C\\c1ccc(C(=O)O)cc1)c1ccc2c(c1)C(C)(C)CCC2(C)C [NCGC00016015-10]")
"bin 2"
>>> classification("COc1ccc(S(=O)(=O)Nc2nc(-c3cccc([N+](=O)[O-])c3)cs2)cc1OC [NCGC00370730-07]")
"bin 2"
>>> classification("O=c1ccc2ccc(O)c(O)c2o1 [NCGC00015349-05]")
"bin 3"
>>> classification("C=C(C)C(=O)OC1CC2(C)OC(=CC2=O)C(=C)CC2OC(=O)C(=C)C12 (centres unmarked) [NCGC00381113-01]")
"bin 1"
>>> classification("Cn1cc(-c2cnc3ccc4ccc(CS(=O)(=O)NCc5ccccn5)cc4c(=O)c3c2)cn1 [NCGC00378567-02]")
"bin 1"
>>> classification("CC(C)c1ccc2c(c1)c(SC(C)(C)C)c(CC(C)(C)C(=O)O)n2Cc1ccc(Cl)cc1 [NCGC00162249-03]")
"bin 1"
>>> classification("CC1(CO)CCCC2(C)C1C(OC(=O)c1ccccc1)C=C1C(=O)OCC12O (centres unmarked) [NCGC00380390-01]")
"bin 2"
>>> classification("O=C1OCc2cc3cccc(O[C@@H]4O[C@H](CO)[C@@H](O)[C@H](O)[C@H]4O)c3c(O)c21 [NCGC00169010-02]")
"bin 2"
>>> classification("CN(C)CC1CCn2c(c(C3=C(c4cn(C)c5ccccc45)C(=O)NC3=O)c3ccccc32)C1.Cl (centres unmarked) [NCGC00163696-04]")
"bin 3"
>>> classification("CN1CCc2ccccc2Cc2[nH]c3ccccc3c2CC1 [NCGC00015614-05]")
"bin 2"
>>> classification("CC1CC2(O)OC(=O)C3=C2C(CCC3)[C@@]12C[C@@H](c1ccoc1)OC2=O (some centres unmarked) [NCGC00385045-01]")
"bin 2"
>>> classification("N#CSc1cc(SC#N)c(N)nc1N [NCGC00371134-01]")
"bin 1"
